The origin of these recorded values is patent US6441133B1.

- Assayed target: T1, Thyrotropin-releasing hormone receptor 2 (TRHR-2), rat, expressed in HEK293s cells from pCDNA3-TRHR2 (rat)
- T1 construct: 352 amino acid open reading frame cloned from a rat brain stem-spinal cord cDNA library; also called TRH receptor 2; 293S/TRH-R clonal cell line
- T1 chain: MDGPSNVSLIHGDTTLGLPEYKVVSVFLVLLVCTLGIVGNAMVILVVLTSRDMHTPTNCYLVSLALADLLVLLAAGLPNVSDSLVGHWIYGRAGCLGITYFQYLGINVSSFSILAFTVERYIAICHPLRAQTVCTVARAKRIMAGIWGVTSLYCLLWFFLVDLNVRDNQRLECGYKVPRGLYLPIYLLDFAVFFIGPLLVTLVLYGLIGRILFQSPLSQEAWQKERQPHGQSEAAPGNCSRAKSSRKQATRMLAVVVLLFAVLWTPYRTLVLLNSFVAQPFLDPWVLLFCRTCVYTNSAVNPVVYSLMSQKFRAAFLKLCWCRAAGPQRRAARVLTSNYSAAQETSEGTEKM
- Procedure text: 3H-TRH competition on cells expressing TRHR-2 (assay not restated in the sentence)
Where no end group is shown, it is not given here. [ ]: non-standard residue; d: D form. pGlu = O=C1CC[C@@H](C(=O)O)N1
Property label: pKi
Kindly note that pKi refers to -log10 of the concentration in mol/L and answer with the value alone.

Looking up [pGlu]HPG (TRH-related peptide with a modified C-terminus) [pGlu-His-Pro-Gly] , I see its pKi listed as 6.19
